Target: Acetylcholinesterase (Homo sapiens) (UniProt P22303)
Sequence (P22303 whole entry, looked up): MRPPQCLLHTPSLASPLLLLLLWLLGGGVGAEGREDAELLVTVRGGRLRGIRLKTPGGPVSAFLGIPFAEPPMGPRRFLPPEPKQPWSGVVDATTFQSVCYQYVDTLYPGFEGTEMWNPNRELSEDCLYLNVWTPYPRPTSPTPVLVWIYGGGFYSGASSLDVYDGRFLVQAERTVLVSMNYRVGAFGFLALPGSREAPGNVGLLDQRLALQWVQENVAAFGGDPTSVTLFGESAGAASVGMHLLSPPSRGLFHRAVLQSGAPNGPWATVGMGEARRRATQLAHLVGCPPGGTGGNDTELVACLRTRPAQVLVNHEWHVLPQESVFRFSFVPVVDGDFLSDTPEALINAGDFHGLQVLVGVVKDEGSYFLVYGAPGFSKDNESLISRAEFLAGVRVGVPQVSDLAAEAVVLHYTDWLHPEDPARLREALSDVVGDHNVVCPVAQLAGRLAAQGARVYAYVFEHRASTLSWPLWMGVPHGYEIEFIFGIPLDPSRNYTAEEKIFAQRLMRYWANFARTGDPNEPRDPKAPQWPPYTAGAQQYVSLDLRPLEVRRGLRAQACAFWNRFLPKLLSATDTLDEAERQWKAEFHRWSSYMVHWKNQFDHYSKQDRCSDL
Test: Acetylcholinesterase (AChE) small molecule antagonists: colormetric cell-based qHTS assay (AID 1347395); note: nearly all actives have a fitted effect of over 30% in size
Details: SH-SY5Y cells AChE activity, colorimetric (Ellman); series mostly up to 115 µM
Text: National Center for Advancing Translational Sciences [NCATS] Division of Preclinical Innovation [DPI] U.S. Environmental Protection Agency [EPA] National Institutes of Environmental Health Sciences [NIEHS] National Toxicology Program [NTP] U.S. Food and Drug Administration [FDA] Acetylcholinesterase (AChE) is the primary cholinesterase in the body that hydrolyzes a key neurotransmitter, acetylcholine. Inhibition of AChE activity can lead to neurotoxicity. […]
Inconclusive results are not listed. Activity calls are given as the source filed them. Calls come from the whole dose curve.
MEASURED_QUANTITY: outcome

# COMPOUND, TGT, outcome
data = [
    ("CCC[N+]1(C)CCCCC1", "Acetylcholinesterase (Homo sapiens) (UniProt P22303)", "inactive"),
    ("COCC(=O)N(c1c(C)cccc1C)C(C)C(=O)OC (centres undefined)", "Acetylcholinesterase (Homo sapiens) (UniProt P22303)", "inactive"),
    ("CCCCCCCCCCCCOS(=O)(=O)O", "Acetylcholinesterase (Homo sapiens) (UniProt P22303)", "inactive"),
    ("CC(Cl)(Cl)C(=O)O", "Acetylcholinesterase (Homo sapiens) (UniProt P22303)", "inactive"),
    ("CNC", "Acetylcholinesterase (Homo sapiens) (UniProt P22303)", "inactive"),
    ("OCCOc1ccccc1", "Acetylcholinesterase (Homo sapiens) (UniProt P22303)", "inactive"),
    ("CC(=O)[O][Hg][c]1ccccc1", "Acetylcholinesterase (Homo sapiens) (UniProt P22303)", "inactive"),
    ("Nc1ccc(-c2ccc(N)c(Cl)c2)cc1Cl", "Acetylcholinesterase (Homo sapiens) (UniProt P22303)", "inactive"),
]

Now for the compound whose outcome we want.
Given the compound `Nc1ccc(Cl)cc1` , what is its reported outcome?
inactive

###

assay: qHTS assay to identify small molecule phospholipidosis (PLD) inducers (AID 1259344); conditions: HepG2 phospholipidosis, LipidTOX Red imaging, 24 h; series mostly up to 38.3 µM
Records with an inconclusive call do not appear. The source made the active and inactive calls. Calls come from the whole dose curve; as a rule, active = well fitted activation curve with a large enough effect; inconclusive = small, poorly fitted or top-dose-only effect; inactive = flat fitted curve, though single readings scatter.
MEASURED_QUANTITY: outcome

Completed entries (count: 5):
# COMPOUND, outcome
rows = [
    ("Oc1ccccc1-c1ccccc1", "inactive"),
    ("Nc1ccccc1", "inactive"),
    ("O=C(O)C(Cl)(Cl)Cl", "inactive"),
    ("OCCOc1ccccc1", "inactive"),
    ("O=P1(N(CCCl)CCCl)NCCCO1 (stereo unspecified)", "inactive"),
]

Given the compound `CC[N+](CC)(CC)CC` , what is its reported outcome?
inactive

Another: COP(=O)(OC)C(O)C(Cl)(Cl)Cl (stereo unspecified)
inactive

Another: `CN(C)[C@@H]1C(=O)C(C(N)=O)=C(O)[C@@]2(O)C(=O)C3=C(O)c4c(O)cccc4[C@@](C)(O)[C@H]3[C@H](O)[C@@H]12`
inactive

Another: `Oc1cccc2cccnc12`
inactive

Another: `C1CCC(NC2CCCCC2)CC1`
inactive

Another: `CCNc1nc(Cl)nc(NCC)n1`
inactive

###

experiment: qHTS assay to identify small molecule antagonists of the androgen receptor (AR) signaling pathway using the MDA cell line - cell viability counter screen (AID 743041; note: nearly all actives have a fitted effect of over 45% in size); conditions: MDA-kb2 viability, CellTiter-Fluor, 16 h, cells co-treated with R1881 androgen agonist; series mostly up to 70.3 µM
Records with an inconclusive call do not appear. Active and inactive are the calls of the source. Calls follow the shape of the dose curve; as a rule, active = well fitted cell-killing curve with a large enough effect in the repeat runs; inconclusive = weak or mixed curves, or effect the other way; inactive = flat fitted curve, though single readings scatter.
MEASURED_QUANTITY: outcome

# SMI, MEASURED_QUANTITY, MEASURED
rows = [
    ("CCCC[n+]1cccc(C)c1", "outcome", "inactive"),
    ("CC[N+](CC)(CC)CC", "outcome", "inactive"),
    ("O=[N+]([O-])c1ccccc1O", "outcome", "inactive"),
]

###

experiment: qHTS assay for identifying genotoxic compounds that show differential cytotoxicity against isogenic chicken DT40 cell lines with known DNA damage response pathways - Rev3 mutant cell line (AID 743014); conditions: chicken DT40 Rev3-/- viability, CellTiter-Glo, 40 h; series mostly up to 68.4 µM; note: nearly all actives have a fitted effect of over 55% in size
Inconclusive results are not listed. Calls of active or inactive are those of the source. Calls follow the shape of the dose curve; as a rule, active = well fitted cell-killing curve with a large enough effect in the repeat runs; inconclusive = weak or mixed curves, or effect the other way; inactive = no such curve, though single readings can be large or run the other way.
Would you mind answering with one of these outcomes? active, inactive

Test call for this molecule, please: `O=C(O)c1ccccc1O`
inactive

Another: `Nc1ccc(Cl)cc1`
inactive

Another: `CCNc1nc(Cl)nc(NCC)n1`
inactive

Another: `CC(=O)O`
inactive

Another: `Nc1ccc(-c2ccc(N)cc2)cc1`
active

Another: `CCCC[N+]1(C)CCCCC1`
inactive

Another: `CCC[N+]1(C)CCCCC1`
inactive

Another: `COc1ccccc1N`
inactive

Another: `O=C(O)CCl`
inactive

Another: `N#CS`
inactive

Another: `O=c1nc(O)n(Cl)c(=O)n1Cl`
inactive

Another: O=P1(N(CCCl)CCCl)NCCCO1 (stereo not given)
inactive

Another: `CCCCCCCCCCCC(=O)O`
inactive

Another: `O=C(O)C(Cl)Cl`
inactive

Another: `O=C(O)CC(O)(CC(=O)O)C(=O)O`
inactive

Another: `O=c1[nH]c(=O)n(Cl)c(=O)n1Cl`
inactive

Another: `CC[N+](CC)(CC)CC`
inactive

Another: `C[N+](C)(C)Cc1ccccc1`
inactive

Another: `O=[N+]([O-])c1ccccc1O`
inactive

Another: `CCn1cc[n+](C)c1C`
inactive

###

Test: qHTS assay to identify small molecule antagonists of the sonic hedgehog signaling (Shh) pathway - cell viability counter screen (AID 1259367); note: nearly all actives have a fitted effect of over 55% in size
Conditions: NIH/3T3 Gli1-Luc viability, CellTiter-Fluor, 24 h; series mostly up to 92.4 µM
Text: National Center for Advancing Translational Sciences [NCATS] NIH Chemical Genomics Center [NCGC] U.S. Environmental Protection Agency [EPA] National Institutes of Environmental Health Sciences [NIEHS] National Toxicology Program [NTP] U.S. Food and Drug Administration [FDA] The sonic hedgehog (Shh) pathway is essential for normal embryonic development. Dysregulation of the Shh pathway can cause severe developmental defects in organs. […]
Results filed as inconclusive are left out. Activity calls are given as the source filed them. The call rests on the fitted dose curve; in most records, active means well fitted cell-killing curve with a large enough effect in the repeat runs; inconclusive means weak or mixed curves, or effect the other way; inactive means no such curve, though single readings can be large or run the other way.
Would you mind answering with one of these outcomes? active, inactive

Test call for this compound, please: `O=c1nc(O)n(Cl)c(=O)n1Cl`
inactive

Another: `CCOP(=S)(OCC)Oc1ccc2c(C)c(Cl)c(=O)oc2c1`
inactive

Another: `CCCCCCn1cc[n+](C)c1`
inactive

Another: `OCCOc1ccccc1`
inactive

Another: `O=C(O)COc1ccc(Cl)cc1Cl`
inactive

Another: `CCn1cc[n+](C)c1C`
inactive

Another: `Cc1cc(Cl)ccc1N`
inactive

Another: `Nc1ccc(Cl)cc1`
inactive

Another: `O=C(O)C(Cl)Cl`
inactive

Another: `CCNc1nc(Cl)nc(NCC)n1`
inactive

Another: `CC[N+](CC)(CC)CC`
inactive

Another: O=P1(N(CCCl)CCCl)NCCCO1 (stereo not given)
inactive

Another: COP(=O)(OC)C(O)C(Cl)(Cl)Cl (stereo not given)
inactive

Another: `CN(C)[C@@H]1C(=O)C(C(N)=O)=C(O)[C@@]2(O)C(=O)C3=C(O)c4c(O)cccc4[C@@](C)(O)[C@H]3[C@H](O)[C@@H]12`
inactive

Another: `CCCn1cc[n+](C)c1`
inactive

Another: `CCCCCCCCCCCCn1cc[n+](C)c1`
active

Another: `Nc1ccccc1`
inactive

Another: `O=C(O)CC(O)(CC(=O)O)C(=O)O`
inactive

Another: `CCCCCCCCCCCCOS(=O)(=O)O`
inactive

Another: `CCCCn1cc[n+](C)c1C`
inactive

Another: `C1CCC(NC2CCCCC2)CC1`
inactive

Another: `COc1ccc(N)cc1`
inactive

Another: `CCCCCCCCn1cc[n+](C)c1`
inactive

Another: `CCCCCC[n+]1ccccc1`
inactive

Another: `O=C(O)CCl`
inactive

Another: `CCCC[N+]1(C)CCCCC1`
inactive

Another: `O=[N+]([O-])c1ccccc1O`
inactive

Another: `Oc1ccccc1-c1ccccc1`
inactive

Another: `CCC[N+]1(C)CCCCC1`
inactive

Another: `O=[N+]([O-])O`
inactive

###

assay: qHTS assay for small molecule agonists of the antioxidant response element (ARE) signaling pathway (AID 743202); conditions: HepG2 ARE-bla reporter, beta-lactamase FRET, 16 h; series mostly up to 73.3 µM
Results filed as inconclusive are left out. Calls of active or inactive are those of the source. The call rests on the fitted dose curve; in most records, active means well fitted activation curve with a large enough effect in the signal ratio in the repeat runs (not every such curve was filed as active); inconclusive means weak or mixed curves, or effect the other way; inactive means no such curve, though single readings can be large or run the other way; the % refers to the signal ratio.
MEASURED_QUANTITY: outcome

Completed entries (count: 5):
# SMI, outcome
records = [
    ("CCCCCCCCCCCCOS(=O)(=O)O", "inactive"),
    ("CCCC[N+]1(C)CCCCC1", "inactive"),
    ("CCCCCCCCCCCC(=O)O", "inactive"),
    ("O=C(O)CC(O)(CC(=O)O)C(=O)O", "inactive"),
    ("OCCOc1ccccc1", "inactive"),
]

Now for the molecule whose outcome we want.
Given the molecule `O=c1[nH]c(=O)n(Cl)c(=O)n1Cl` , what is its reported outcome?
inactive
